B1: TPR t1 (parent)
chain: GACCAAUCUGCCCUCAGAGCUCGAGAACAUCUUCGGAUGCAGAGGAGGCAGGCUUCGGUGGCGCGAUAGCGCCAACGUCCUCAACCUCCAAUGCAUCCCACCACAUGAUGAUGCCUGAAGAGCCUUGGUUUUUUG

Variants of: B1
Assay: polymerase ribozyme fitness, log enrichment relative to wild type (log ratio); higher = more active; in vitro selection for triplet polymerase activity
QUANTITY MEASURED: polymerase ribozyme fitness (log ratio)

Consider the following illustrative entries.
MUTATION DESCRIPTOR: G48C C49A U78G U81G
polymerase ribozyme fitness (log ratio): -1.87
--
MUTATION DESCRIPTOR: C72G U129G
polymerase ribozyme fitness (log ratio): -1.34
--
MUTATION DESCRIPTOR: C56G C114U
polymerase ribozyme fitness (log ratio): -2.55
--
MUTATION DESCRIPTOR: A43U G48A C56U
polymerase ribozyme fitness (log ratio): -1.58
--
MUTATION DESCRIPTOR: C56G G69U C82U A95U G127U
polymerase ribozyme fitness (log ratio): -3.08
--
MUTATION DESCRIPTOR: G113U G120A
polymerase ribozyme fitness (log ratio): -2.2

Ask: Can you look up the measured polymerase ribozyme fitness (log ratio) of C86U C114A for me?
Result: -1.71

Ask: Record request: polymerase ribozyme fitness (log ratio) value, item G17U C114U U125A
Result: -5.53

Ask: I am curious: what polymerase ribozyme fitness (log ratio) value has been reported for U54G A95G U130A ?
Result: -1.11

Ask: // lookup polymerase ribozyme fitness (log ratio) for C13U G35C G48C C73A A74G C104U
Result: -4.6

Ask: Dear colleague, I am looking for the recorded polymerase ribozyme fitness (log ratio) of the following variant: C49G A90C U126C
Result: -3.39

Provenance of the data: the RNAGym collection of RNA variant scans (doi:10.1073/pnas.2313332121)
